# tested-system: Metabotropic glutamate receptor 1 (Homo sapiens)
# Sequence (Q13255 whole entry): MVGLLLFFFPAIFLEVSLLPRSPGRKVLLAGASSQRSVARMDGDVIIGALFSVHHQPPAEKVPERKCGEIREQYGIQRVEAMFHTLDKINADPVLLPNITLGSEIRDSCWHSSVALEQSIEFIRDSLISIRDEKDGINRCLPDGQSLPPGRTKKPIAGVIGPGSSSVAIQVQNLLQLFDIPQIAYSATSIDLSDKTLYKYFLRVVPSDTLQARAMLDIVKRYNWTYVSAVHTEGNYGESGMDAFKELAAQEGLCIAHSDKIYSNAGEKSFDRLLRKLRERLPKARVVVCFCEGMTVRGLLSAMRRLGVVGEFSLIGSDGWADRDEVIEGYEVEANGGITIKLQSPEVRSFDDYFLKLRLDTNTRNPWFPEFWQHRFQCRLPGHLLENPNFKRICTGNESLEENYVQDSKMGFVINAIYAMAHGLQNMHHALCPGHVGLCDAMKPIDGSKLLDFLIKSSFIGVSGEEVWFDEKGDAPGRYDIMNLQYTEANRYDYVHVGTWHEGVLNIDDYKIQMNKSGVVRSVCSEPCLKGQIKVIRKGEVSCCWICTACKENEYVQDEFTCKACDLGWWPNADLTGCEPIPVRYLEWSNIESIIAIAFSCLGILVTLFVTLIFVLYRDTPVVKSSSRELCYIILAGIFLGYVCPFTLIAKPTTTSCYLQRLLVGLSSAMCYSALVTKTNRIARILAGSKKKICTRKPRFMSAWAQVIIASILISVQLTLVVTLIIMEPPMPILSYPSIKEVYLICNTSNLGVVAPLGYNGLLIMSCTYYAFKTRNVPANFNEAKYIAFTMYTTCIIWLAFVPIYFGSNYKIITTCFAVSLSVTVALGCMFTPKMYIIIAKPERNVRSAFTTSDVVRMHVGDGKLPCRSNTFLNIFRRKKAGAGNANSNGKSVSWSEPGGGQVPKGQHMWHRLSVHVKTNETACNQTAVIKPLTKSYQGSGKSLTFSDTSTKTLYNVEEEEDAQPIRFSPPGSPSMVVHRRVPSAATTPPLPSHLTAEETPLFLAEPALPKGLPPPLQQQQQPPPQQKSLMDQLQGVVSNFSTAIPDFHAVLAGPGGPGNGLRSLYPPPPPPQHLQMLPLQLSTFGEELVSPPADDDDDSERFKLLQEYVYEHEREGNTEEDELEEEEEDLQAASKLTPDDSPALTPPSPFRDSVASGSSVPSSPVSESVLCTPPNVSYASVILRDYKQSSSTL
# measurement-protocol: Antagonistic activity against metabotropic glutamate receptor 1 (mGluR1) was evaluated
pIC50: −log10 of the molar value.
observable: pIC50

In the examples that follow, each entry is paired with its recorded pIC50.
1. CC(C)C[C@@H]1[C@H](C(=O)O)[C@H]1C(N)(CC1c2ccccc2Oc2ccccc21)C(=O)O (stereo partly drawn) :: < 4.00
2. C[C@@H]1[C@H](C(=O)O)[C@H]1C(N)(CC1c2ccccc2Oc2ccccc21)C(=O)O (stereo partly drawn) :: < 4.00

Case NC(CC1c2ccccc2Oc2ccccc21)(C(=O)O)[C@H]1[C@H](CCc2ccccc2)[C@@H]1C(=O)O (stereo partly drawn) , Metabotropic glutamate receptor 1 (Homo sapiens), pIC50 recorded as < 4.00
